test system: PI(3,4)P2 liposomes; assay: Yeast proteome chip probed with PI(3,4)P2 liposomes; details: liposome binding signal on yeast proteome chip, Cy3-streptavidin detection
readout label: PI(3, 4)P2

# molecule, readout label, measured result
data = [
    ("ARP10: yeast GST-HisX6 fusion protein on proteome chip (protein, UniProt Q04549 1-284, looked up, GST-HisX6 tag, yeast GST-HisX6 fusion protein on proteome chip) Actin-like protein ARP10: MSNTIVIVYLGANRIEIGRSADACPQEIIAWKTGSINEKNREELKKIFEHYFQICNILGNREVQVLILEDIFISVVEKRIICSILFKEFDCAHVSFVPRAIVHCLSCNTRNAIVIDIGTNYTTCVPIFDLRPLQQFIKYSKRGKRQVESRIPLPGSLYMPIFFDEEYNSKNCEVDETPVINLVKNIVESLPIDLRRPLRENIIIVNIEEAYETVIRNLFKLKMDTSKIQFPKNYWQAGSACAKILLHYKGSNIVGIERDEFYNNPHIAPDWFDYYFRTGVKRLQ", "PI(3, 4)P2", 29.20),
    ("MAG1: yeast GST-HisX6 fusion protein on proteome chip (protein, UniProt P22134 1-296, looked up, GST-His6 tag, yeast GST-HisX6 fusion protein on proteome chip) DNA-3-methyladenine …: MKLKREYDELIKADAVKEIAKELGSRPLEVALPEKYIARHEEKFNMACEHILEKDPSLFPILKNNEFTLYLKETQVPNTLEDYFIRLASTILSQQISGQAAESIKARVVSLYGGAFPDYKILFEDFKDPAKCAEIAKCGLSKRKMIYLESLAVYFTEKYKDIEKLFGQKDNDEEVIESLVTNVKGIGPWSAKMFLISGLKRMDVFAPEDLGIARGFSKYLSDKPELEKELMRERKVVKKSKIKHKKYNWKIYDDDIMEKCSETFSPYRSVFMFILWRLASTNTDAMMKAEENFVKS", "PI(3, 4)P2", "−2.20"),
    ("APS2: yeast GST-HisX6 fusion protein on proteome chip (protein, UniProt Q00381 1-147, looked up, GST-HisX6 tag, yeast GST-HisX6 fusion protein on proteome chip) AP-2 complex subunit sigma: MAVQFILCFNKQGVVRLVRWFDVHSSDPQRSQDAIAQIYRLISSRDHKHQSNFVEFSDSTKLIYRRYAGLYFVMGVDLLDDEPIYLCHIHLFVEVLDAFFGNVCELDIVFNFYKVYMIMDEMFIGGEIQEISKDMLLERLSILDRLD", "PI(3, 4)P2", 56.51),
    ("FRM2: yeast GST-HisX6 fusion protein on proteome chip (protein, UniProt P37261 1-193, looked up, GST-His6 fusion tag, yeast GST-HisX6 fusion protein on proteome chip) nitroreductase FRM2: MSPTGNYLNAITNRRTIYNLKPELPQGVGLDDVKRTVHVILKNTPTAFNSQVNRAVIIVGDTHKRIWDAVASAMPTAEAKKRPESCRDEAYGSVIFFTDEGPTEKLQRDFPALAAAFPTCAAHTTGAVQIQSWTALELLGLGANLQHYNDYVKSALPQDVPIAWTVQSQLVFGVPTALPEEKTFINNVINVYH", "PI(3, 4)P2", 59.34),
    ("FUR1: yeast GST-HisX6 fusion protein on proteome chip (protein, UniProt P18562 1-216, looked up, GST-His6 fusion tag, yeast GST-HisX6 fusion protein on proteome chip) Uracil …: MSSEPFKNVYLLPQTNQLLGLYTIIRNKNTTRPDFIFYSDRIIRLLVEEGLNHLPVQKQIVETDTNENFEGVSFMGKICGVSIVRAGESMEQGLRDCCRSVRIGKILIQRDEETALPKLFYEKLPEDISERYVFLLDPMLATGGSAIMATEVLIKRGVKPERIYFLNLICSKEGIEKYHAAFPEVRIVTGALDRGLDENKYLVPGLGDFGDRYYCV", "PI(3, 4)P2", 210.19),
]
